Molecular target: T1, Nluc-IL23R fusion protein (human, UniProt Q5VWK5 22-629)
T1 construct: range 22-629; Stably expressed in HEK293 cells; also called hIL-23R; human IL-23R; not shown: Nanoluc protein (N1371, Promega) at the N-terminus, after a secretion signal
T1 sequence (looked up): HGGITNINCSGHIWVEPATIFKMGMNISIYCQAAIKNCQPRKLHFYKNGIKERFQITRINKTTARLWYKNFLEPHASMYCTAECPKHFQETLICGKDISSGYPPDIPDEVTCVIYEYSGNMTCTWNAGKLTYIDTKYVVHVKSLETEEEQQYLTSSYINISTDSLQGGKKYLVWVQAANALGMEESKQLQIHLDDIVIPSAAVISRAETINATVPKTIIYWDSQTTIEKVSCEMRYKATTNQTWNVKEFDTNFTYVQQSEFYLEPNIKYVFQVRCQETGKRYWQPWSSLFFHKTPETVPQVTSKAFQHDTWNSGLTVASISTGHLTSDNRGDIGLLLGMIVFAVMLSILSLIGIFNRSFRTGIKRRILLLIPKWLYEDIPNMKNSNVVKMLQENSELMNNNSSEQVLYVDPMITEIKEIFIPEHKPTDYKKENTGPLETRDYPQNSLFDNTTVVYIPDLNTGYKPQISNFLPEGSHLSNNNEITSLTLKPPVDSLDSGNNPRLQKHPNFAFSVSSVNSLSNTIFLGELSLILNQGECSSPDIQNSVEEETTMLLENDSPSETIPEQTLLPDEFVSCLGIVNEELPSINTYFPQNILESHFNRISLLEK
Assay: BRET competition vs TAMRA-labelled peptide, Nluc-IL23R membranes; note: test concentration or dose not given here
*1 amine or outer side, *2 acyl side, *3 side chain or, on linkers, in order; H or OH if unused. Bridges are numbered along the chain shown (N, C = ends). Primed or numbered codes have the meaning given here. Where no end group is shown, it is not given here. [ ]: non-standard residue; d: D form. 1,3‑dibromopropan‑2‑one″ = linker forming 1,3-dithio-propan-2-one bridge -SCH2C(=O)CH2S- between two Cys; bLys = L-beta-lysine, (3S)-3,6-diaminohexanoic acid, O=C(C[C@H](CCCN[*:3])N[*:1])[*:2]; 2Nal = N[C@@H](Cc1ccc2ccccc2c1)C(=O)O; AEF = NCCOc1ccc(C[C@H](N)C(=O)O)cc1; 3Pal = N[C@@H](Cc1cccnc1)C(=O)O; αMeL = CC(C)C[C@](C)(N)C(=O)O; NMeK = CN[C@@H](CCCCN)C(=O)O; 3Amb = NCc1cccc(C(=O)O)c1; Dab = NCC[C@H](N)C(=O)O; βAla = NCCC(=O)O
readout.label: % displacement (%)

binder	% displacement [%]
[3Amb]SCWQC[AEF][2Nal][αMeL]E[dR]-NH2 (lactam N-10; linker 3-6 via 1,3‑dibromopropan‑2‑one″) [Ref 41]	110
[bLys]TVWQE[AEF][2Nal][αMeL]E[Dab][3Pal]-NH2 (lactam 1-10, N-6) [Compound 12]	104
[NMeK][βAla]WQE[AEF][2Nal][αMeL]E[Dab][3Pal]-NHMe (lactam 1-9, 1-5; not fully specified; printed as [N-Me-Lys](1c)(6c)^†[3-Aminopropanoyl]WQE(6c)[Y(2-aminoethoxy)][2-Nal][2-Me-Leu]E(1c)[Dab][3-(3-Pyridyl)-Ala]-[NHMe], (1c) [2,11] lactam, (6c) [2,7] lactam, ^† alpha-amine in bridge; also: alpha-amine of residue 1 in bridge, which of the two lactams not given here) [Compound 80]	102
